experiment: protein stability index of a GFP-peptide fusion (GPS, HEK-293T) (PSI 1-6); higher = more stable; details: treatment: MLN4924 1 uM, 8 h; c terminus: a fixed tail appended;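 further: 24-mer peptide tiles fused after GFP, lentivirally expressed, FACS-sorted into six equal bins by GFP/DsRed ratio, decoded by Illumina sequencing, PSI is the read-weighted mean bin number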

{"INPUT SEQUENCE": "RGHQNWVYSCAFSPDSSMLCSVGA [WSB1]", "protein stability index": 2.03}
{"INPUT SEQUENCE": "DGKLFPSDGFRDCKKGDPKHGKRK [ELF3]", "protein stability index": 5.38}
{"INPUT SEQUENCE": "HKLVSASTDNIVSQWDVLSGDCDQ [RBBP5]", "protein stability index": 4.68}
{"INPUT SEQUENCE": "SALEGRADTTTGSAAGPPLSEDDK [EHMT1]", "protein stability index": 5.38}
{"INPUT SEQUENCE": "LDITNPKAVLENALRNFACLTTGD [UFD1]", "protein stability index": 2.46}
{"INPUT SEQUENCE": "NYGADTNTRNYEGQTPLAVSISIS [ASB7]", "protein stability index": 2.77}
{"INPUT SEQUENCE": "FLRQLRASHLGNELEGTEELCCVA [C2CD2L]", "protein stability index": 3.19}
{"INPUT SEQUENCE": "ADEQLHCAGKAKRSGGHAPRVREL [ESR2]", "protein stability index": 4.39}
{"INPUT SEQUENCE": "GGGEGHQPAGNRRGQARRLAPNFR [BEX3]", "protein stability index": 4.92}
{"INPUT SEQUENCE": "CHECGKKFSQNSHLIKHRRTHTGE [ZNF75A]", "protein stability index": 4.72}
{"INPUT SEQUENCE": "VDNSCDWALGVCNNSWIRKNSTMV [TRIM43]", "protein stability index": 2.5}
{"INPUT SEQUENCE": "AVVSQMDQEQGSSFQMSEGSEAAV [FAM189A2]", "protein stability index": 5.44}
{"INPUT SEQUENCE": "EAGIKVHDVRLNGSAAGHVLVKDN [TENT5C]", "protein stability index": 4.61}
{"INPUT SEQUENCE": "LIQPQDQSCWAFLPDLCLCRVFWW [FBXO39]", "protein stability index": 2.9}
{"INPUT SEQUENCE": "WSRLEEFDVFSPKQDLVPGSPDDS [DLC1]", "protein stability index": 4.87}
{"INPUT SEQUENCE": "NQLLVADVKRLGKQNARFLTSMRR [STX11]", "protein stability index": 3.08}
{"INPUT SEQUENCE": "PSSPGRFTKETTQKNFNNLYGTKG [TRIM29]", "protein stability index": 4.37}
{"INPUT SEQUENCE": "LTSLLACLPAGPRVYFLKGGYETF [DUSP5]", "protein stability index": 2.36}
{"INPUT SEQUENCE": "FATFCGGLAANGALQRLDLRNNQI [LRRC45]", "protein stability index": 2.37}
{"INPUT SEQUENCE": "VCNKKFKMKHHLTEHMKTHTGLKP [ZBTB22]", "protein stability index": 3.21}
{"INPUT SEQUENCE": "PSELRDLVTQQLPHLMPSNCGLEE [S100A14]", "protein stability index": 3.02}
{"INPUT SEQUENCE": "DPAPLWGPPPAQGSPGDGGLQDQV [EMID1]", "protein stability index": 5.2}
{"INPUT SEQUENCE": "EEVDQMFQFASIDVAGNLDYKALS [MYL5]", "protein stability index": 4.39}
{"INPUT SEQUENCE": "VVLCFSIANPNSLHHVKTMWYPEI [RHOBTB2]", "protein stability index": 3.16}
{"INPUT SEQUENCE": "SRIAKGGVDHTKMSLHGASGGHER [BTBD10]", "protein stability index": 4.43}
{"INPUT SEQUENCE": "TGLSGGKRPSQEEDTQSIGPKVQR [CRY1]", "protein stability index": 5.04}
{"INPUT SEQUENCE": "YEMTDLTNNKVYAAKIIPHSRVAK [PLK2]", "protein stability index": 4.05}

----------
assay: protein stability index of a GFP-peptide fusion (GPS, HEK-293T) (PSI 1-6); higher = more stable; details: treatment: DMSO; c terminus: a fixed tail appended

{"INPUT SEQUENCE": "SSEVDELIHKADEVTLSEAGSTAG [PALM]", "protein stability index": 5.65}
{"INPUT SEQUENCE": "HVFIGDHSGQVTILKLEQENCTLV [WDFY2]", "protein stability index": 2.09}
{"INPUT SEQUENCE": "LRQAQQNMDPKAAEEEEEEEEEVD [CCND1]", "protein stability index": 5.64}
{"INPUT SEQUENCE": "APGIGPPEPWPGGCTGDEAESRGH [MYCL]", "protein stability index": 4.97}
{"INPUT SEQUENCE": "GGDAGHAPFPPPPAADGARAPRSP [C6orf223]", "protein stability index": 5.39}
{"INPUT SEQUENCE": "LEEQGATWRHRETLIIAVLVSASI [FATE1]", "protein stability index": 2.77}
{"INPUT SEQUENCE": "AAFEEFDTDRDGYISHRELGDCMR [CABP4]", "protein stability index": 4.25}
{"INPUT SEQUENCE": "SRIAKGGVDHTKMSLHGASGGHER [BTBD10]", "protein stability index": 4.5}
{"INPUT SEQUENCE": "PCKTRDDEPVCGRPLGIRAGPNGT [APMAP]", "protein stability index": 3.9}
{"INPUT SEQUENCE": "QMTNIGVYVSNMTDKLVTPGKYFS [IQUB]", "protein stability index": 2.31}
{"INPUT SEQUENCE": "AGRWLWGAQPCLLLPIVPLSWLVW [ADAMTS4]", "protein stability index": 2.98}
{"INPUT SEQUENCE": "PLQNQKILKRTGQRYEHGRTLKSY [ZNF649]", "protein stability index": 2.89}
{"INPUT SEQUENCE": "AWVANFERPRMNANSLLASPTGLS [CRY1]", "protein stability index": 2.64}

----------
assay: protein stability index of a GFP-peptide fusion (GPS, HEK-293T) (PSI 1-6); higher = more stable; conditions: treatment: DMSO; c terminus: a fixed tail appended
Quick rule: protein stability index of at least 3 means Met, below that means Not met.

{"INPUT SEQUENCE": "CRDGEVLLRLSKHGPGHETPMTIP [ACSBG2]", "CLASS NAME": "Not met"}
{"INPUT SEQUENCE": "PETKQRKLSPLRLSVSNNQEPDFI [KMT2E]", "CLASS NAME": "Met"}
{"INPUT SEQUENCE": "QAALRAARLRHQELFRLRGIKAQV [NOP53]", "CLASS NAME": "Not met"}
{"INPUT SEQUENCE": "SFLRDHSYATEADIISTVEFNHTG [PPP2R2B]", "CLASS NAME": "Met"}
{"INPUT SEQUENCE": "ALIDRPAPYFERSSSKRYTMSRSL [EPB41L3]", "CLASS NAME": "Not met"}
{"INPUT SEQUENCE": "LCGQAAGAASLPSELIVHIFSFLP [FBXO33]", "CLASS NAME": "Not met"}
{"INPUT SEQUENCE": "EAAEAETAKDNGEAEDQEEKEDAE [SRPK2]", "CLASS NAME": "Met"}
{"INPUT SEQUENCE": "KLYHQSKGPGAPQYPAGTQGEQLE [SPSB2]", "CLASS NAME": "Met"}
{"INPUT SEQUENCE": "VKGLFKSENCPKVISCEFAHNSNW [LARP4]", "CLASS NAME": "Not met"}
{"INPUT SEQUENCE": "LTSLLACLPAGPRVYFLKGGYETF [DUSP5]", "CLASS NAME": "Not met"}
{"INPUT SEQUENCE": "DLVMALSAGGHGGLLNDTSAPHLE [KCNA4]", "CLASS NAME": "Not met"}
{"INPUT SEQUENCE": "DNQWMTQINRLQKLIDRLEKKDLK [NECAB1]", "CLASS NAME": "Not met"}
{"INPUT SEQUENCE": "FLSDVTAAVKENQMTPTNLAVCLA [DLC1]", "CLASS NAME": "Not met"}
{"INPUT SEQUENCE": "QPQALLVDGDQSKILISGLEPSTP [TNXB]", "CLASS NAME": "Met"}
{"INPUT SEQUENCE": "LQELLTHDTKDQSPSRAPGLRQRA [HMOX1]", "CLASS NAME": "Met"}
{"INPUT SEQUENCE": "GGGNARATGMFLQYTVPGTEGVTQ [ZFYVE21]", "CLASS NAME": "Met"}
{"INPUT SEQUENCE": "VRHLEEENRGIVVLGINRAYGKNS [AUH]", "CLASS NAME": "Met"}
{"INPUT SEQUENCE": "ERRRRFNINDRIKELGTLIPKSSD [TFE3]", "CLASS NAME": "Met"}
{"INPUT SEQUENCE": "GPDGQEMDPPNPEEVKTPEEEMRS [GAGE1]", "CLASS NAME": "Met"}
{"INPUT SEQUENCE": "DPNFKMEHQNKRSPLHAAAEAGHV [EHMT1]", "CLASS NAME": "Met"}
{"INPUT SEQUENCE": "GKEFGYFPRDAVQIEEVFISEEIQ [MIA2]", "CLASS NAME": "Met"}
{"INPUT SEQUENCE": "SQPAVELVSGSQSALGPPPAASNS [CLINT1]", "CLASS NAME": "Met"}
{"INPUT SEQUENCE": "LEQQNQVLETKWELLQQLDLNNCK [KRT71]", "CLASS NAME": "Met"}
{"INPUT SEQUENCE": "DLDRMGVMTLPSDLRKHRRKLLSP [PPFIA4]", "CLASS NAME": "Met"}
{"INPUT SEQUENCE": "CAIASGSELSESAFGYFITACAVI [SLC29A1]", "CLASS NAME": "Met"}
{"INPUT SEQUENCE": "SALQSLLQHLIGLSNLTHVLYPVP [PRAME]", "CLASS NAME": "Met"}
